Origin of measurements: ChEMBL document CHEMBL4715796

Property: EC90; scope: individual molecules
# Test system: Huh-7
# test-name: Inhibition of NS5A in Hepatitis C virus subtype 2b infected in human HuH7 cells assessed as reduction in viral replication by luciferase reporter gene assay
# Type: cell-based
Give your result in nM as a bare value.

See these solved cases before continuing.
- molecule: "COC(=O)N[C@H](C(=O)N1CCC[C@H]1c1ncc(-c2cc(F)c3c(c2)OC(c2ccc4c(c2)COC4)n2c-3cc3cc(-c4cnc([C@@H]5CCCN5C(=O)[C@@H](NC(=O)OC)C(C)C)[nH]4)ccc32)[nH]1)C(C)C (some centres not stated)"
  target-system: "Huh-7"
  output-unit: "nM"
  EC90: 2
- molecule: "COC(=O)N[C@H](C(=O)N1CCC[C@H]1c1ncc(-c2cc(F)c3c(c2)OC(c2ccc4c(c2)OCC[C@@H]4C)n2c-3cc3cc(-c4cnc([C@@H]5CCCN5C(=O)[C@@H](NC(=O)OC)C(C)C)[nH]4)ccc32)[nH]1)C(C)C (some centres not stated)"
  target-system: "Huh-7"
  output-unit: "nM"
  EC90: 0.2
- molecule: "COC(=O)N[C@H](C(=O)N1CCC[C@H]1c1ncc(-c2cc(F)c3c(c2)OC(c2ccc4c(c2)OCCC4(F)F)n2c-3cc3cc(-c4cnc([C@@H]5CCCN5C(=O)[C@@H](NC(=O)OC)C(C)C)[nH]4)ccc32)[nH]1)C(C)C (some centres not stated)"
  target-system: "Huh-7"
  output-unit: "nM"
  EC90: 0.2

[ask] Could you please provide reported EC90 for COC(=O)N[C@H](C(=O)N1CCC[C@H]1c1ncc(-c2cc(F)c3c(c2)OC(c2ccc4c(c2)OCCC42CC2)n2c-3cc3cc(-c4cnc([C@@H]5CCCN5C(=O)[C@@H](NC(=O)OC)C(C)C)[nH]4)ccc32)[nH]1)C(C)C.O=C(O)C(F)(F)F.O=C(O)C(F)(F)F (some centres not stated) ? Thanks!
[reply] 0.2

[ask] Could you please provide reported EC90 for COC(=O)N[C@H](C(=O)N1CCC[C@H]1c1ncc(-c2cc(F)c3c(c2)OC(c2ccc4c(c2)OCC(=O)N4C)n2c-3cc3cc(-c4cnc([C@@H]5CCCN5C(=O)[C@@H](NC(=O)OC)C(C)C)[nH]4)ccc32)[nH]1)C(C)C (some centres not stated) ? Thanks!
[reply] 2

[ask] Could you please provide reported EC90 for COC(=O)N[C@H](C(=O)N1CCC[C@H]1c1ncc(-c2cc(F)c3c(c2)OC(c2ccc4c(c2)CC[C@H](C)O4)n2c-3cc3cc(-c4cnc([C@@H]5CCCN5C(=O)[C@@H](NC(=O)OC)C(C)C)[nH]4)ccc32)[nH]1)C(C)C (some centres not stated) ? Thanks!
[reply] 7

[ask] Could you please provide reported EC90 for COC(=O)N[C@H](C(=O)N1CCC[C@H]1c1ncc(-c2cc(F)c3c(c2)OC(c2ccc4c(c2)CC2CC2(C)O4)n2c-3cc3cc(-c4cnc([C@@H]5CCCN5C(=O)[C@@H](NC(=O)OC)C(C)C)[nH]4)ccc32)[nH]1)C(C)C (mixture of isomers) ? Thanks!
[reply] 5

[ask] Could you please provide reported EC90 for COC(=O)N[C@H](C(=O)N1CCC[C@H]1c1ncc(-c2cc(F)c3c(c2)OC(c2ccc4c(c2)CCCO4)n2c-3cc3cc(-c4cnc([C@@H]5CCCN5C(=O)[C@@H](NC(=O)OC)C(C)C)[nH]4)ccc32)[nH]1)C(C)C (some centres not stated) ? Thanks!
[reply] 7

[ask] Could you please provide reported EC90 for COC(=O)N[C@H](C(=O)N1CCC[C@H]1c1ncc(-c2cc(F)c3c(c2)OC(c2ccc4c(c2)O[C@H](C)CC4)n2c-3cc3cc(-c4cnc([C@@H]5CCCN5C(=O)[C@@H](NC(=O)OC)C(C)C)[nH]4)ccc32)[nH]1)C(C)C (some centres not stated) ? Thanks!
[reply] 0.9

[ask] Could you please provide reported EC90 for COC(=O)N[C@H](C(=O)N1CCC[C@H]1c1ncc(-c2cc(F)c3c(c2)OC(c2ccc4c(c2)CCC(C)(C)O4)n2c-3cc3cc(-c4cnc([C@@H]5CCCN5C(=O)[C@@H](NC(=O)OC)C(C)C)[nH]4)ccc32)[nH]1)C(C)C (some centres not stated) ? Thanks!
[reply] 2

[ask] Could you please provide reported EC90 for COC(=O)N[C@H](C(=O)N1CCC[C@H]1c1ncc(-c2cc(F)c3c(c2)OC(c2cccc4ccccc24)n2c-3cc3cc(-c4cnc([C@@H]5CCCN5C(=O)[C@@H](NC(=O)OC)C(C)C)[nH]4)ccc32)[nH]1)C(C)C (some centres not stated) ? Thanks!
[reply] 31

[ask] Could you please provide reported EC90 for COC(=O)N[C@H](C(=O)N1CCC[C@H]1c1ncc(-c2cc(F)c3c(c2)OC(c2ccc4c(c2)OCC4)n2c-3cc3cc(-c4cnc([C@@H]5CCCN5C(=O)[C@@H](NC(=O)OC)C(C)C)[nH]4)ccc32)[nH]1)C(C)C (mixture of isomers) ? Thanks!
[reply] 3
